Assay: Selectivity index, ratio of CC50 for cytotoxicity against mouse J774A.1 cells to IC50 for Leishmania donovani MHOM/IN/80/Dd8 amastigotes harboring luciferase reporter gene infected in mouse J774A.1 cells
Assay type: toxicity, cell-based
Conditions: read-out: Ratio CC50/IC50
Returns one of 1.0 or 0.0; 1.0 when selectivity ratio is >= 2.

[
  {
    "Smiles string": "Cc1nc2ccccc2c(-c2ccccc2)c1C(=O)OCc1cn(Cc2ccc([N+](=O)[O-])cc2)nn1",
    "Category": 1.0
  },
  {
    "Smiles string": "Cc1nc2ccc(Cl)cc2c(-c2ccccc2)c1C(=O)OCc1cn(Cc2ccccc2)nn1",
    "Category": 1.0
  },
  {
    "Smiles string": "Cc1ccc(-n2cc(COC(=O)c3c(C)nc4ccccc4c3-c3ccccc3)nn2)cc1F",
    "Category": 1.0
  },
  {
    "Smiles string": "Cc1ccc(-n2cc(COC(=O)c3c(C)nc4ccccc4c3-c3ccccc3)nn2)cc1",
    "Category": 1.0
  },
  {
    "Smiles string": "Cc1ccc(-n2cc(COC(=O)c3c(C)nc4ccc(Cl)cc4c3-c3ccccc3)nn2)cc1F",
    "Category": 1.0
  },
  {
    "Smiles string": "Cc1ccc(Cn2cc(COC(=O)c3c(C)nc4ccccc4c3-c3ccccc3)nn2)cc1",
    "Category": 0.0
  },
  {
    "Smiles string": "COc1cccc(Cn2cc(COC(=O)c3c(C)nc4ccccc4c3-c3ccccc3)nn2)c1",
    "Category": 0.0
  },
  {
    "Smiles string": "Cc1nc2ccc(Cl)cc2c(-c2ccccc2)c1C(=O)OCc1cn(Cc2ccc([N+](=O)[O-])cc2)nn1",
    "Category": 1.0
  },
  {
    "Smiles string": "CCCCCCCCCCCCCCCCOP(=O)([O-])OCC[N+](C)(C)C",
    "Category": 1.0
  },
  {
    "Smiles string": "CCc1ccc(-n2cc(COC(=O)c3c(C)nc4ccc(Cl)cc4c3-c3ccccc3)nn2)cc1",
    "Category": 1.0
  }
]
